meta.source: patent US20240391954A1

target: human MC3R (human, UniProt P41968 1-323); assay: cell-based or functional assay
Sequence (P41968 whole entry): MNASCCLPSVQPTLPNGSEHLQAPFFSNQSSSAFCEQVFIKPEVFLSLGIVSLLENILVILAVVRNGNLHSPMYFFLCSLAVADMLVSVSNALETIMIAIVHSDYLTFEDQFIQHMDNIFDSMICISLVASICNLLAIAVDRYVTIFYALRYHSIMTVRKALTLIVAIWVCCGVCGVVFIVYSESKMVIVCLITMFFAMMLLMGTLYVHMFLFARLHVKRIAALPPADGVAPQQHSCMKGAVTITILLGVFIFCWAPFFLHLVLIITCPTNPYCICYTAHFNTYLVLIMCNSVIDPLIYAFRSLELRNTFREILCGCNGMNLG
Positions of bridges follow the written chain, without caps; N, C: chain ends. Non-standard residues stand in square brackets, D forms with d. dPhe(4-Br) = N[C@H](Cc1ccc(Br)cc1)C(=O)O; d2Nal = N[C@H](Cc1ccc2ccccc2c1)C(=O)O; NMeR = CN[C@@H](CCCNC(=N)N)C(=O)O
Below, each of the binders is paired with its reported cAMP EC50 value.

[
  {
    "BINDER": "Ac-RC[dA]R[dPhe(4-Br)]R[d2Nal]C-NH2 (disulfide 2-8; SMILES CC(=O)N[C@@H](CCCNC(=N)N)C(=O)N[C@H]1CSSC[C@@H](C(N)=O)NC(=O)[C@@H](Cc2ccc3ccccc3c2)NC(=O)[C@H](CCCNC(=N)N)NC(=O)[C@@H](Cc2ccc(Br)cc2)NC(=O)[C@H](CCCNC(=N)N)NC(=O)[C@@H](C)NC1=O) [CTX-1254]",
    "cAMP EC50 / µM": 0.0092
  },
  {
    "BINDER": "Ac-RC[dA]RF[NMeR][dW]C-NH2 (disulfide 2-8; not fully specified (residue 5)) [CTX-1251]",
    "cAMP EC50 / µM": 0.093
  },
  {
    "BINDER": "Ac-RC[dA]P[d2Nal]RWC-NH2 (disulfide 2-8; SMILES CC(=O)N[C@@H](CCCNC(=N)N)C(=O)N[C@H]1CSSC[C@@H](C(N)=O)NC(=O)[C@H](Cc2c[nH]c3ccccc23)NC(=O)[C@H](CCCNC(=N)N)NC(=O)[C@@H](Cc2ccc3ccccc3c2)NC(=O)[C@@H]2CCCN2C(=O)[C@@H](C)NC1=O) [CTX-2203]",
    "cAMP EC50 / µM": 0.029
  }
]
